Measurement Description: A CellTox Green Cytotoxicity Assay to monitor cytotoxicity in HEK293 cells - 40 hour (AID 1224871); also: nearly all actives have a fitted effect of over 45% in size
Conditions: CellTox Green fluorescence; series mostly up to 35.3 µM
Inconclusive results are not listed. Activity calls are given as the source filed them. Calls follow the shape of the dose curve; as a rule, active = well fitted activation curve with a large enough effect in the repeat runs; inconclusive = weak or mixed curves; inactive = flat fitted curve, though single readings scatter.
// one of active, inactive, no free text

Illustrative cases are given below, each with its answer.
>>> category("C=C1CC[C@H]2C[C@@H]1C2(C)C")
"inactive"
>>> category("CN1CC(=O)NC1=N")
"inactive"
>>> category("C[C@@H]1CCN(C(=O)[C@H](CCCN=C(N)N)NS(=O)(=O)c2cccc3c2NC[C@H](C)C3)[C@@H](C(=O)O)C1")
"inactive"
>>> category("COc1ccc2c(c1)c(CC(=O)OCC(=O)O)c(C)n2C(=O)c1ccc(Cl)cc1")
"inactive"
>>> category("CN(C)CCCSc1ccccc1NC(=O)/C=C/c1ccccc1")
"active"

Input line: Test call for this molecule, please: `COC(=O)c1cc(C(=O)OC)cc(S(=O)(=O)O)c1`
Output line: inactive

Input line: Test call for this molecule, please: COc1ccccc1OCC(O)CN1CCN(CC(=O)Nc2c(C)cccc2C)CC1 (configuration not stated)
Output line: inactive

Input line: Test call for this molecule, please: `O=c1[nH]c(=O)n([C@H]2C[C@H](O)[C@@H](CO)O2)cc1I`
Output line: inactive

---

Target Of Assay: Aryl hydrocarbon receptor (Homo sapiens) (UniProt P35869)
Sequence (P35869 whole entry, looked up): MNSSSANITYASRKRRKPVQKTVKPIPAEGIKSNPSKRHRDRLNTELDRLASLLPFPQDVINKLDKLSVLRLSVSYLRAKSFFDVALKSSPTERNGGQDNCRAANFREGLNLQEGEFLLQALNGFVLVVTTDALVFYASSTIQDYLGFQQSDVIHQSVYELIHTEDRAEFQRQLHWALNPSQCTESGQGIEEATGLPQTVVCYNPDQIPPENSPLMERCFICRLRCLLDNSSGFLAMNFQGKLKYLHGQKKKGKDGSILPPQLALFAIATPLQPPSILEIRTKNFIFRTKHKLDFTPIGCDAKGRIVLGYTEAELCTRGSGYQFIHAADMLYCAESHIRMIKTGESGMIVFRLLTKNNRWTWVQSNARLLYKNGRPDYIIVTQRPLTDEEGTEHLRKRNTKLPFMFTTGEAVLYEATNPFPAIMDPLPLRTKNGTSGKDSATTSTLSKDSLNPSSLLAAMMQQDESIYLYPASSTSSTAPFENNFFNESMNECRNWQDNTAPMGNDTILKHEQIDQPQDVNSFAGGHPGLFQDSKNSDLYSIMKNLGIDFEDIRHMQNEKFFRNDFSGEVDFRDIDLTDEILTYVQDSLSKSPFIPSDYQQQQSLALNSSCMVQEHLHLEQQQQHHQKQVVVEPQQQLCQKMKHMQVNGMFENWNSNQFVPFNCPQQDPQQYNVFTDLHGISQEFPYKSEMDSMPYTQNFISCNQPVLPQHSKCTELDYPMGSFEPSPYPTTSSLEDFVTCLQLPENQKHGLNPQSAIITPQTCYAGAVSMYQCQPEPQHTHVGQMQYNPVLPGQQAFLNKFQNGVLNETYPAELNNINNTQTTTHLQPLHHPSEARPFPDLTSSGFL
Measurement Description: qHTS assay to identify small molecule that activate the aryl hydrocarbon receptor (AhR) signaling pathway (AID 743085);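 also: HG2L7.5c1 human HepG2 liver cells with stably integrated DRE-driven firefly reporter; % is scaled to controls: 0 for no effect and ±100 for the full control effect; nearly all actives have a fitted effect of over 15% in size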
Conditions: HepG2 AhR-luc (HG2L7.5c1), luciferase, 24 h; series mostly up to 70.3 µM
Inconclusive results are not listed. Activity calls are given as the source filed them. The call rests on the fitted dose curve; in most records, active means well fitted activation curve with a large enough effect in the repeat runs; inconclusive means weak or mixed curves; inactive means no such curve, though single readings can be large or run the other way.
// one of active, inactive, no free text

>>> category("C[C@](N)(Cc1ccc(O)cc1)C(=O)O")
"inactive"
>>> category("CC(=O)Nc1ccc(S(N)(=O)=O)cc1")
"inactive"
>>> category("COC(=O)NN")
"inactive"

Input line: Test call for this compound, please: CC(C)CCCC(C)N (centres undefined)
Output line: inactive

Input line: Test call for this compound, please: `Nc1ccc(S(=O)(=O)Nc2ccnn2-c2ccccc2)cc1`
Output line: inactive

Input line: Test call for this compound, please: `CCCN(CCC)CCc1cccc2c1CC(=O)N2`
Output line: inactive

Input line: Test call for this compound, please: `O=C[C@H](O)[C@@H](O)[C@H](O)[C@H](O)CO`
Output line: inactive

Input line: Test call for this compound, please: CC(=O)N(CC(O)CO)c1c(I)c(C(=O)NCCO)c(I)c(C(=O)NCC(O)CO)c1I (centres undefined)
Output line: inactive

---

Measurement Description: qHTS assay to identify small molecule agonists of the endoplasmic reticulum stress response signaling pathway - cell viability counter screen (AID 1159517);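 also: HeLa cells carrying an ER stress response element beta-lactamase reporter; % is scaled to controls: 0 for no effect and ±100 for the full control effect; nearly all actives have a fitted effect of over 50% in size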
Conditions: ESRE-bla HeLa viability, CellTiter-Glo luminescence, 5 h; series mostly up to 61 µM
Inconclusive results are not listed. Activity calls are given as the source filed them. Calls come from the whole dose curve.
Parameter: activity change, negative = cytotoxicity

// known answers, use as guide
>>> result("Cc1c(O)cccc1O")
"inactive"
>>> result("Nc1ccc(S(=O)(=O)Nc2ccnn2-c2ccccc2)cc1")
"inactive"
>>> result("C=C[Si](OC(=C)C)(OC(=C)C)OC(=C)C")
"inactive"
>>> result("CCC(C)S (centres undefined)")
"12.1% [at 3.11 µM] (inactive)"
>>> result("O=[N+]([O-])c1ccc(F)cc1F")
"inactive"

Dear reader, for each entry below, please note its activity change, negative = cytotoxicity.
1. CC(C)(O)C(=O)c1ccccc1
2. Cc1ccc(C#N)cc1

Output line:
1. inactive
2. inactive

---

Measurement Description: qHTS assay to identify small molecule antagonists of the estrogen receptor beta (ER-beta) signaling pathway - cell viability counter screen (AID 1259382);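 also: HEK293T cells carrying ER-beta-UAS-bla reporter stimulated with estradiol; % is scaled to controls: 0 for no effect and ±100 for the full control effect; nearly all actives have a fitted effect of over 55% in size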
Conditions: ER-beta-UAS-bla HEK293T viability, CellTiter-Glo luminescence, 16 h; series mostly up to 92.4 µM
From the text: U.S. Tox21 Program National Center for Advancing Translational Sciences [NCATS] NIH Chemical Genomics Center [NCGC] U.S. Environmental Protection Agency [EPA] National Institutes of Environmental Health Sciences [NIEHS] National Toxicology Program [NTP] U.S. Food and Drug Administration [FDA] Tox21 Assay Overview: Estrogen receptor (ER), a nuclear hormone receptor, plays an important role in development, metabolic homeostasis and reproduction. […]
Results filed as inconclusive are left out. Activity calls are given as the source filed them. The call rests on the fitted dose curve; in most records, active means well fitted cell-killing curve with a large enough effect in the repeat runs; inconclusive means weak or mixed curves; inactive means flat fitted curve, though single readings scatter.
Parameter: activity change, negative = cytotoxicity

// known answers, use as guide
>>> result("C=COCC1CCC(CO)CC1 (stereo not drawn)")
"inactive"
>>> result("CC(C)(O)C(=O)c1ccccc1")
"inactive"
>>> result("N[C@H](C(=O)O)c1ccc(O)cc1")
"3.71% [at 19 µM] (inactive)"
>>> result("CC/C=C\\CC/C=C/CO")
"inactive"
>>> result("CCCCCOC(=O)CCCCC")
"inactive"
>>> result("CCCCCCCCCCCC")
"inactive"
>>> result("CC(C)NC(=O)NC(C)C")
"inactive"

Please examine the following record next.
Input line: Look up activity change, negative = cytotoxicity for this compound: `CCN1CCC[C@H]1CNC(=O)c1cc(S(N)(=O)=O)ccc1OC`
Output line: inactive

---

Target Of Assay: Bile acid receptor (Homo sapiens)
Measurement Description: qHTS assay to identify small molecule antagonists of the farnesoid-X-receptor (FXR) signaling pathway (AID 743217); also: % is scaled to controls: 0 for no effect and ±100 for the full control effect
Conditions: HEK293T FXR-UAS-bla, beta-lactamase ratio, CDCA-stimulated, 16 h; series mostly up to 62.6 µM
Results filed as inconclusive are left out. The source made the active and inactive calls. Calls come from the whole dose curve; as a rule, active = well fitted inhibition curve with a large enough effect in the signal ratio in the repeat runs (not every such curve was filed as active); inconclusive = weak or mixed curves, or effect the other way; inactive = no such curve, though single readings can be large or run the other way; the % refers to the signal ratio.
Parameter: activity change, negative = inhibition

// known answers, use as guide
>>> result("FC1(F)C(F)(F)C(F)(F)C2(F)C(F)(F)C(F)(F)C(F)(F)C(F)(F)C2(F)C1(F)F (configuration not stated)")
"inactive"
>>> result("CC(=O)Nc1ccc(S(N)(=O)=O)cc1")
"inactive"
>>> result("COc1c(N2C[C@@H]3CCCN[C@@H]3C2)c(F)cc2c(=O)c(C(=O)O)cn(C3CC3)c12")
"inactive"
>>> result("COC(=O)NN")
"inactive"
>>> result("N[C@@H](C(=O)N[C@@H]1C(=O)N2C(C(=O)O)=C(Cl)CS[C@H]12)c1ccccc1")
"-0.0054% [at 13.2 µM] (inactive)"

Dear reader, for each entry below, please note its activity change, negative = inhibition.
1. CCC(=O)OC(C)c1ccccc1 (configuration not stated)
2. O=C(CCCN1CCC(O)(c2cccc(C(F)(F)F)c2)CC1)c1ccc(F)cc1
3. CCCCCCCCCCCCCCCCC
4. Cn1cc(S(C)=O)c(=O)c2ccc(F)cc21 (configuration not stated)
5. NS(=O)(=O)c1ccc(C(=O)O)cc1
6. CN1CC(=O)NC1=N
7. CC(C)NC(=O)NC(C)C
8. O=C(O)Cc1ccc(CCNS(=O)(=O)c2ccc(Cl)cc2)cc1

Output line:
["inactive", "inactive", "inactive", "inactive", "inactive", "inactive", "inactive", "inactive"]

Dear reader, for each entry below, please note its activity change, negative = inhibition.
1. CCO[Si](CCC1CCC2OC2C1)(OCC)OCC (configuration not stated)
2. O=C(O)CNC(=O)c1ccc([N+](=O)[O-])cc1
3. O=c1n(CCO)c(=O)n(CCO)c(=O)n1CCO
4. CC(=O)OCC(=O)[C@@]1(O)CCC2C3CCC4=CC(=O)CC[C@]4(C)C3[C@@H](O)C[C@@]21C (some centres not stated)
5. O=C1CCCC(=O)C1
6. O=S(O)CO

Output line:
["inactive", "inactive", "inactive", "inactive", "inactive", "inactive"]

---

Measurement Description: Caspase-3/7 induction in HepG2 cells by small molecules, qHTS cell viability counter screen (AID 1346981); also: % is scaled to controls: 0 for no effect and ±100 for the full control effect; nearly all actives have a fitted effect of over 30% in size
Conditions: CellTiter-Fluor fluorescence, 17 h; series mostly up to 92.4 µM
Records with an inconclusive call do not appear. The source made the active and inactive calls. The call rests on the fitted dose curve; in most records, active means well fitted cell-killing curve with a large enough effect in the repeat runs; inconclusive means weak or mixed curves, or effect the other way; inactive means flat fitted curve, though single readings scatter.
Parameter: activity change, negative = cytotoxicity

// known answers, use as guide
>>> result("COC(=O)c1ccc(C)cc1C1=NC(C)(C(C)C)C(=O)N1 (centres undefined)")
"inactive"
>>> result("O=C(O)Cc1ccc(CCNS(=O)(=O)c2ccc(Cl)cc2)cc1")
"inactive"
>>> result("OC(CCN1CCCCC1)(c1ccccc1)C1CC2C=CC1C2 (centres undefined)")
"inactive"
>>> result("CC(=O)CC(C)C")
"inactive"
>>> result("CC(C)OC(=O)c1ccccc1")
"inactive"

Dear reader, for each entry below, please note its activity change, negative = cytotoxicity.
1. O=C1CCCCCCCCCCCN1
2. O=C(CCCN1CCC(O)(c2cccc(C(F)(F)F)c2)CC1)c1ccc(F)cc1
3. CCN(CC)CCOCCOC(=O)C1(c2ccccc2)CCCC1
4. CCn1ccnc1CC1COc2ccccc2O1 (centres undefined)

Output line:
1: inactive; 2: inactive; 3: inactive; 4: inactive
